target: PKC delta kinase (Homo sapiens, UniProt Q05655); experiment: PKC delta kinase inhibition, coupled-enzyme NADH absorbance assay (Ki); type: biochemical; settings: 150 μM ATP, 46 nM PKC delta, 30° C.; read-out: Ki PKC delta
Sequence (Q05655 whole entry): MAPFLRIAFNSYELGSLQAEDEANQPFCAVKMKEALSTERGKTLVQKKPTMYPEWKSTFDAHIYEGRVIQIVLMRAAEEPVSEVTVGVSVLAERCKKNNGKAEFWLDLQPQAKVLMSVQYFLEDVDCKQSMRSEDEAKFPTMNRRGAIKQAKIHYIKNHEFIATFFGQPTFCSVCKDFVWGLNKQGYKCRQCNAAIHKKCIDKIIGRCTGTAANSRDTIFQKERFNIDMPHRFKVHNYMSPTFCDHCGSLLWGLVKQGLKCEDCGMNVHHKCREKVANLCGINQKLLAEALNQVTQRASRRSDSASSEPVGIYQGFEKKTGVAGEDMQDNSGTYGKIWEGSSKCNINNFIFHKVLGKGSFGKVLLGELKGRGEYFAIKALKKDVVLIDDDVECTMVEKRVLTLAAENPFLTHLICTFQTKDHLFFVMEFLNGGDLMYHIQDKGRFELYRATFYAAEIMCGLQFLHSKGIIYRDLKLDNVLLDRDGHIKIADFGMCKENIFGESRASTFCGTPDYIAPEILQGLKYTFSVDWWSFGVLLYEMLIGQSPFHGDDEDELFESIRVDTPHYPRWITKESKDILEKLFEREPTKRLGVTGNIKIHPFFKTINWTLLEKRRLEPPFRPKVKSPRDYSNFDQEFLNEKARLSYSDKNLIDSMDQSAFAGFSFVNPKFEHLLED
property_label: Ki

Input: Ki lookup needed for COCC(C)(CN)c1cccc(-c2ccnc3[nH]ncc23)c1 (stereo not drawn) [Compound 150] , thanks.
Output: < 500 nM

Input: Ki lookup needed for NCC1(c2cc(F)cc(-c3ccnc4[nH]nc(C(F)(F)F)c34)c2)CCOCC1 [Compound 276] , thanks.
Output: < 2800 nM

Input: Ki lookup needed for CC(C)=CCC(C)(CN)c1cccc(-c2ccnc3[nH]ncc23)c1 (stereo not drawn) [Compound 154] , thanks.
Output: < 500 nM

Input: Ki lookup needed for Cc1cc(-c2ccnc3[nH]ncc23)cc(C2(CN)CCC2)c1 [Compound 145] , thanks.
Output: < 2800 nM

Input: Ki lookup needed for CCC(C)(C#N)c1cc(-c2ccnc3[nH]ncc23)cc(C(F)(F)CCC2CCCCC2)c1 (stereo not drawn) [Compound 118] , thanks.
Output: > 2000 nM

Input: Ki lookup needed for Cc1cc(-c2ccnc3[nH]ncc23)cc(C(C)(C)CN)c1 [Compound 32] , thanks.
Output: < 500 nM

Input: Ki lookup needed for NCC1(c2cc(F)cc(-c3ccnc4[nH]ncc34)c2)CCC1 [Compound 188] , thanks.
Output: < 2800 nM

Input: Ki lookup needed for OCC1(c2cccc(-c3ccnc4[nH]ncc34)c2)CCNC1 (stereo not drawn) [Compound 196] , thanks.
Output: < 2800 nM

Input: Ki lookup needed for CCC1(c2cccc(-c3ccnc4[nH]ncc34)c2)CNC(=O)O1 (stereo not drawn) [Compound 254] , thanks.
Output: < 500 nM

Input: Ki lookup needed for CCC(C)(C#N)c1cc(Cl)cc(-c2ccnc3[nH]ncc23)c1 (stereo not drawn) [Compound 87] , thanks.
Output: < 2800 nM

Input: Ki lookup needed for NC(CCC1CCCC1)c1cccc(-c2ccnc3[nH]ncc23)c1 (stereo not drawn) [Compound 253] , thanks.
Output: > 1200 nM

Input: Ki lookup needed for N#CC1(c2cc(CCCO)cc(-c3ccnc4[nH]nc(C(F)(F)F)c34)c2)CC1 [Compound 312] , thanks.
Output: < 2800 nM

Input: Ki lookup needed for N#CC1(c2cccc(-c3ccnc4[nH]nc(Cl)c34)c2)CC1 [Compound 205] , thanks.
Output: < 50 nM

Input: Ki lookup needed for CCC(C)(C#N)c1cc(C)cc(-c2ccnc3[nH]ncc23)c1 (stereo not drawn) [Compound 89] , thanks.
Output: < 2800 nM

Input: Ki lookup needed for COCC[C@@](C)(CN)c1cccc(-c2ccnc3[nH]nc(C(F)(F)F)c23)c1 [Compound 286] , thanks.
Output: < 500 nM

Input: Ki lookup needed for CC(C)(N)CCc1cc(-c2ccnc3[nH]nc(C(F)(F)F)c23)cc(C2(C#N)CC2)c1 [Compound 317] , thanks.
Output: > 1200 nM

Input: Ki lookup needed for CCC(C#N)c1cccc(-c2ccnc3[nH]ncc23)c1 (stereo not drawn) [Compound 66] , thanks.
Output: < 2800 nM

Input: Ki lookup needed for CCC(CC)(CN)c1cccc(-c2ccnc3[nH]ncc23)c1 [Compound 47] , thanks.
Output: < 500 nM

Input: Ki lookup needed for CC(CN)(CC(F)F)c1cccc(-c2ccnc3[nH]ncc23)c1 (stereo not drawn) [Compound 148] , thanks.
Output: < 50 nM

Input: Ki lookup needed for CCC(C)(CN)c1cc(CCC(F)F)cc(-c2ccnc3[nH]ncc23)c1 (stereo not drawn) [Compound 161] , thanks.
Output: > 2000 nM

Input: Ki lookup needed for NCC1(c2cccc(-c3ccnc4[nH]ncc34)c2)CC=C(F)CC1 (stereo not drawn) [Compound 184] , thanks.
Output: < 500 nM

Input: Ki lookup needed for C=CCc1cc(-c2ccnc3[nH]ncc23)cc(C(C)(C)CC#N)c1 [Compound 217] , thanks.
Output: > 2000 nM

Input: Ki lookup needed for CCC(C)(CN)c1cc(CCCO)cc(-c2ccnc3[nH]ncc23)c1 (stereo not drawn) [Compound 156] , thanks.
Output: < 2800 nM

Input: Ki lookup needed for CCC(N)c1cccc(-c2ccnc3[nH]nc(C(F)(F)F)c23)c1 (stereo not drawn) [Compound 309] , thanks.
Output: < 2800 nM

Input: Ki lookup needed for CC(C#N)(Cc1cccnc1)c1cccc(-c2ccnc3[nH]ncc23)c1 (stereo not drawn) [Compound 116] , thanks.
Output: > 2000 nM

Input: Ki lookup needed for CCC1(c2cc(C)cc(-c3ccnc4[nH]nc(C(F)(F)F)c34)c2)CNC(=S)O1 (stereo not drawn) [Compound 296] , thanks.
Output: > 1200 nM

Input: Ki lookup needed for CCC(C)(CN)c1cc(CCCF)cc(-c2ccnc3[nH]ncc23)c1 (stereo not drawn) [Compound 160] , thanks.
Output: < 2800 nM

Input: Ki lookup needed for NCc1cccc(-c2ccnc3[nH]nc(C(F)(F)F)c23)c1 [Compound 294] , thanks.
Output: > 1200 nM

Input: Ki lookup needed for CC(CN)(Cc1cccnc1)c1cccc(-c2ccnc3[nH]ncc23)c1 (stereo not drawn) [Compound 171] , thanks.
Output: < 500 nM

Input: Ki lookup needed for CC(C#N)(Cc1ccccc1)c1cccc(-c2ccnc3[nH]ncc23)c1 (stereo not drawn) [Compound 100] , thanks.
Output: > 2800 nM

Input: Ki lookup needed for CCC(C)(CN)c1cc(-c2ccnc3[nH]ncc23)cc(C(F)(F)CCC2CCCCC2)c1 (stereo not drawn) [Compound 180] , thanks.
Output: > 2000 nM

Input: Ki lookup needed for CCCc1cc(-c2ccnc3[nH]ncc23)cc(C(C)(C)CN)c1 [Compound 42] , thanks.
Output: < 2800 nM

Input: Ki lookup needed for CCC(C)(CN)c1cc(-c2ccnc3[nH]ncc23)cc(C(F)(F)F)c1 (stereo not drawn) [Compound 139] , thanks.
Output: < 500 nM

Input: Ki lookup needed for C1=C(c2cccc(-c3ccnc4[nH]ncc34)c2)CNC1 [Compound 231] , thanks.
Output: < 2800 nM

Input: Ki lookup needed for CC(C)C(C)(CN)c1cccc(-c2ccnc3[nH]ncc23)c1 (stereo not drawn) [Compound 48] , thanks.
Output: < 500 nM

Input: Ki lookup needed for C=CCC(C)(CN)c1cccc(-c2ccnc3[nH]ncc23)c1 (stereo not drawn) [Compound 134] , thanks.
Output: < 500 nM

Reference source for all entries: patent US8173635B2
